- Tgt: Bile salt export pump (Rattus norvegicus, UniProt O70127)
- Sequence (O70127 whole entry): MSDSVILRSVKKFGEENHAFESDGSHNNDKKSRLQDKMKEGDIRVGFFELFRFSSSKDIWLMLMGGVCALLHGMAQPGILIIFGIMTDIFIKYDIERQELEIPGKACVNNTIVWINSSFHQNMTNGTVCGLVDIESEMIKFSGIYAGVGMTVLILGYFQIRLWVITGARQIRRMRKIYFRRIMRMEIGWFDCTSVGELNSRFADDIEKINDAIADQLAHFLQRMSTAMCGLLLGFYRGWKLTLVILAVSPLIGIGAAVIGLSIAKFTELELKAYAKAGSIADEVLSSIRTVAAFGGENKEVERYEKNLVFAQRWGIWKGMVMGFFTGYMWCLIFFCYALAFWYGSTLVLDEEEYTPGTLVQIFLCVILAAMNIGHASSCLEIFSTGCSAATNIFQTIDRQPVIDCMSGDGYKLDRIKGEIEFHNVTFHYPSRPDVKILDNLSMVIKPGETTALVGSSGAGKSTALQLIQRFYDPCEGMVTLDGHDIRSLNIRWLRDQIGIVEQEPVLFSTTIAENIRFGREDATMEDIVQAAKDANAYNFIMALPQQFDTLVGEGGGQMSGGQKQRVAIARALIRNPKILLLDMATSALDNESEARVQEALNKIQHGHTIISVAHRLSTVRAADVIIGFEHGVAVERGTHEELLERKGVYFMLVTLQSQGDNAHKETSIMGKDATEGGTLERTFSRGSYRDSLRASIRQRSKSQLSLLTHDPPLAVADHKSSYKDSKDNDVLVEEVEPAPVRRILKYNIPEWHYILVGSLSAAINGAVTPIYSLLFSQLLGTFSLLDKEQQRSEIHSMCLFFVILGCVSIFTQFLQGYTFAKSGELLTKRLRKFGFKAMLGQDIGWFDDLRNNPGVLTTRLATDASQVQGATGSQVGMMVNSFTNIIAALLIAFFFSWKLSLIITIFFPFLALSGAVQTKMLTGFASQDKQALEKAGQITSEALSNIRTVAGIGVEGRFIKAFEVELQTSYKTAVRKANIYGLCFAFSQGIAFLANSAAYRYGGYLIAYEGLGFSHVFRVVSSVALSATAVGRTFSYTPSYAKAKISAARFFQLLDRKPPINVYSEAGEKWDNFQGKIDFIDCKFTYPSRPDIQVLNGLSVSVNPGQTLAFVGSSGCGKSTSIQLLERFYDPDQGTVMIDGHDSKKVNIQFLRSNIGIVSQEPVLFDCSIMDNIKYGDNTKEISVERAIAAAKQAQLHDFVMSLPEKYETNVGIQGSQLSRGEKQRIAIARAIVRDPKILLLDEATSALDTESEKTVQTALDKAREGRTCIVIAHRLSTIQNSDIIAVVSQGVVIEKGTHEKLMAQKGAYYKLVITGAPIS
- Test protocol: Inhibition of Sprague-Dawley rat Bsep expressed in plasma membrane vesicles of Sf21 cells assessed as inhibition of ATP-dependent [3H]taurocholate uptake
pIC50: −log10 of the molar value.
Property: pIC50; scope: individual compounds
Endpoint name: pIC50

Compound	Tgt	Result operator	Numeric readout
CO[C@H]1/C=C/O[C@@]2(C)Oc3c(C)c(O)c4c(O)c(c(/C=N/N5CCN(C)CC5)c(O)c4c3C2=O)NC(=O)/C(C)=C\C=C\[C@H](C)[C@H](O)[C@@H](C)[C@@H](O)[C@@H](C)[C@H](OC(C)=O)[C@@H]1C [RIFAMPIN]	Bile salt export pump (Rattus norvegicus, UniProt O70127)	=	4.46
COc1cc(C)c(/C=C/C(C)=C/C=C/C(C)=C/C(=O)O)c(C)c1C [ACITRETIN]	Bile salt export pump (Rattus norvegicus, UniProt O70127)	=	4.71
NC(N)=Nc1nc(CSCCC(N)=NS(N)(=O)=O)cs1 [FAMOTIDINE]	Bile salt export pump (Rattus norvegicus, UniProt O70127)	<	3.00
C[C@@H]1C[C@H]2[C@@H]3CCC4=CC(=O)C=C[C@]4(C)[C@@]3(F)[C@@H](O)C[C@]2(C)[C@@]1(O)C(=O)CO [DEXAMETHASONE]	Bile salt export pump (Rattus norvegicus, UniProt O70127)	=	3.63
COc1ccc(C(=O)NCc2cccnc2)cc1C(=O)NCc1cccnc1 [PICOTAMIDE]	Bile salt export pump (Rattus norvegicus, UniProt O70127)	=	3.20
CN(Cc1cnc2nc(N)nc(N)c2n1)c1ccc(C(=O)N[C@@H](CCC(=O)O)C(=O)O)cc1 [METHOTREXATE]	Bile salt export pump (Rattus norvegicus, UniProt O70127)	<	3.00
O=C(O)c1cc(-c2ccccc2)nc2ccccc12 [CINCHOPHEN]	Bile salt export pump (Rattus norvegicus, UniProt O70127)	=	3.53
